# target under test: ATP-sensitive potassium channels (Cavia porcellus, UniProt A0A286XYR9)
# Sequence (A0A286XYR9 1-1546): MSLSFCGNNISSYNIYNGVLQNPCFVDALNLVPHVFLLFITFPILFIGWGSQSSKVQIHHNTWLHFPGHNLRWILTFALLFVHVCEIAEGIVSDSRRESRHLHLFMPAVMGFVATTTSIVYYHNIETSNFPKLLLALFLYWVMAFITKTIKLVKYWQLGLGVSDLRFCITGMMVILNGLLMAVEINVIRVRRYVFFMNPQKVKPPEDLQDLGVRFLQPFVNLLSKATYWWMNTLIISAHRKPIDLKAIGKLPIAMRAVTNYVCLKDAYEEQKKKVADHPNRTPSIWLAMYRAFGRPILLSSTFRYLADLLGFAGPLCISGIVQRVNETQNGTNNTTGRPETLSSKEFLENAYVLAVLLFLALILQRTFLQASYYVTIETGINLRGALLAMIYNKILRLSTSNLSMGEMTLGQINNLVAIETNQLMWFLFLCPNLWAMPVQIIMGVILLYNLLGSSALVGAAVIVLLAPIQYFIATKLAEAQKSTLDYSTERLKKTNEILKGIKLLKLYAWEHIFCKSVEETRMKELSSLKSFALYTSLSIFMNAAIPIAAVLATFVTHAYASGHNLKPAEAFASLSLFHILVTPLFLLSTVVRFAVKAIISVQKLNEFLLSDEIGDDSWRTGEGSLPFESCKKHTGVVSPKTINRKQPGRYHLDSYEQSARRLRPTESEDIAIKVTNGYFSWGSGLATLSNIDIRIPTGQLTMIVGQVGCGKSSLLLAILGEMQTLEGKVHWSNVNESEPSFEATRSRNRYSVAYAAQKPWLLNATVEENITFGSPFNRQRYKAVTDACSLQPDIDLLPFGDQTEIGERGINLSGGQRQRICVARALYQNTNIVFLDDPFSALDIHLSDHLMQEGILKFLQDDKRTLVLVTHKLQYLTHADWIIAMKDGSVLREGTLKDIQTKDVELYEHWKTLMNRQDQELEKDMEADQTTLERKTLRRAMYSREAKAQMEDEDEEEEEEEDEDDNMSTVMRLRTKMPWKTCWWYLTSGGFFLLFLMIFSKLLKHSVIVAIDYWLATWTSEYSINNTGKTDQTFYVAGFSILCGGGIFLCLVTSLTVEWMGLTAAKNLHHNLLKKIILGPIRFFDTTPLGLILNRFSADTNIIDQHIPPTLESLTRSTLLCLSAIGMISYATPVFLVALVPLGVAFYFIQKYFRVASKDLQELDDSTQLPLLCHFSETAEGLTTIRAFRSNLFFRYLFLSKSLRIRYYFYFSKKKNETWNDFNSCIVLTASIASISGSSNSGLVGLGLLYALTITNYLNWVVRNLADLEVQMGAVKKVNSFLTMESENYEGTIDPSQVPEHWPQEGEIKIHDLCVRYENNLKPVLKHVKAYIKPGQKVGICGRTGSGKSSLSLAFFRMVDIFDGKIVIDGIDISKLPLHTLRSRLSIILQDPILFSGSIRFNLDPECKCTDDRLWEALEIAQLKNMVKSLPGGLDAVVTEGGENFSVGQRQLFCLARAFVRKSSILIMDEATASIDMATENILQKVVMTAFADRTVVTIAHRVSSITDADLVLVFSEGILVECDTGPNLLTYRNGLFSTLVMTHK
# test details: Radioligand (Example 1) binding assay, guinea-pig cardiac ventricle membranes
# conditions: cardiac membranes; in the presence of the ATP regenerating system; Cheng-Prusoff; read-out: Ki value for displacement of specific Example 1 binding
measurement label: Ki (nM)
Write the number in nM without appending the unit.

Given item O=C1COCC2=C1C(c1ccc(F)c(I)c1)C1=C(CCS1(=O)=O)N2 (centres unmarked) [Example 1] , the value recorded as its Ki is 5.8

Given item O=C1COCC2=C1C(c1ccc(F)c(I)c1)C1=C(CCS1(=O)=O)N2 (centres unmarked) [Unlabeled Example 1] , the value recorded as its Ki is 5.8
